# Tested on: CCRIS mutagenicity, Ames/micronucleus/aberration tests
# experiment.summary: CCRIS mutagenicity studies
# test.parameters: Test System: AMES SALMONELLA TYPHIMURIUM; Strain/Indicator: TA98(1,8-DNP6); Metabolic Activation: RAT, LIVER, S-9, AROCLOR 1254; Method: PREINCUBATION
The source made the active and inactive calls. No rule for the calls is given here.
Allowed answers: true (active), false (inactive)

Illustrative cases are given below, each with its answer.
>  <query.smiles>
O=c1oc2c([N+](=O)[O-])ccc3ccc4cccc1c4c32

>  <group>
true

$$$$
>  <query.smiles>
O=C(O)/C=C/c1ccc([N+](=O)[O-])cc1

>  <group>
true

$$$$
>  <query.smiles>
O=c1oc2ccc([N+](=O)[O-])c3ccc4cccc1c4c23

>  <group>
false

$$$$

Read the next record carefully.
Given CC(=O)Nc1ccc(Oc2ccc(N(O)C=O)cc2)cc1 , state the outcome it received in this test. true

====

# Test system: CCRIS mutagenicity, Ames/micronucleus/aberration tests
# experiment.summary: CCRIS mutagenicity studies
# test.parameters: Test System: AMES SALMONELLA TYPHIMURIUM; Strain/Indicator: TA98 (NR); Metabolic Activation: NONE; Method: STANDARD PLATE
Active and inactive are the calls of the source. The rule behind the calls is not given here.

>  <query.smiles>
O=[N+]([O-])c1c2ccccc2c2ccc3cccc4ccc1c2c43

>  <mutagenic call>
inactive; negative

$$$$
>  <query.smiles>
Cn1c([N+](=O)[O-])cnc1-c1nnc(N)s1

>  <mutagenic call>
inactive; negative

$$$$
>  <query.smiles>
Cc1ccc(/C=C/c2ccc([N+](=O)[O-])cc2)cc1

>  <mutagenic call>
inactive; negative

$$$$

====

# System: CCRIS mutagenicity, Ames/micronucleus/aberration tests
# experiment.summary: CCRIS mutagenicity studies
# test.parameters: Test System: AMES SALMONELLA TYPHIMURIUM; Strain/Indicator: TA1538; Metabolic Activation: RAT, LIVER, S-9, AROCLOR 1254; Method: STANDARD PLATE
Calls of active or inactive are those of the source. The rule behind the calls is not given here.
Select the correct class. Options are Y (active), N (inactive) and nothing else.

>  <query.smiles>
C/C=C/C=C/C=O

>  <group>
N

$$$$

Recorded test outcome, item Cc1cc(O)c2c(O)c3c(O)cccc3cc2c1 N

Name the outcome recorded for O=C(O)c1cc(=O)c2c(OCC(O)COc3cccc4oc(C(=O)O)cc(=O)c34)cccc2o1 in the assay. N

Look up the recorded call for C=C(C)C(C)=O in this test. N

Outcome logged for Oc1c(Br)cc(Br)cc1Br in this assay: N

Name the outcome recorded for COc1ccc(N)cc1 in the assay. N

# outcome recorded in this test, key = C#C[C@]1(OC(=O)CCCCCC)CC[C@H]2[C@@H]3CCC4=CC(=O)CC[C@@H]4[C@H]3CC[C@@]21C N

Hi, do you know how Nc1ncnc2c1ncn2[C@H]1CC[C@@H](CO)O1 came out in this test? N

Hey, what did the test say about Cc1cc(N)cc(C)c1N ? N

Please let me know the test result on file for Cc1ccc(N)cc1N . Y

Record lookup: outcome of this test for O=c1[nH]cnc2c1ncn2[C@H]1CC[C@@H](CO)O1 ? N

====

# Test system: CCRIS mutagenicity, Ames/micronucleus/aberration tests
# experiment.summary: CCRIS mutagenicity studies
# test.parameters: Test System: AMES SALMONELLA TYPHIMURIUM; Strain/Indicator: TA98; Metabolic Activation: NONE; Method: STANDARD PLATE
Calls of active or inactive are those of the source. No rule for the calls is given here.
Your response should consist of one outcome taken from yes (1) for active, no (0) for inactive

Solved entries:
>  <query.smiles>
Cc1c2ccccc2c(C)c2ccccc12

>  <group>
yes (1)

$$$$
>  <query.smiles>
BrCc1c2ccccc2cc2ccccc12

>  <group>
yes (1)

$$$$
>  <query.smiles>
N=C(N)c1ccc(-c2cc3ccc(C(=N)N)cc3s2)cc1

>  <group>
no (0)

$$$$

Please share the test call associated with C=CC(=O)OCC(C)(C)C . no (0)

Give the logged outcome of this assay for the following molecule: CC(=O)ON(C(C)=O)c1ccccc1C no (0)

What classification did CCN(CCCl)CCCNc1c2ccc(Cl)cc2nc2ccc(OC)cc12 end up with in this test? yes (1)

Status in this test for Cc1cc(N=Nc2ccccc2C)ccc1N ? no (0)

====

# Test system: CCRIS mutagenicity, Ames/micronucleus/aberration tests
# experiment.summary: CCRIS mutagenicity studies
# test.parameters: Test System: AMES SALMONELLA TYPHIMURIUM; Strain/Indicator: TA97; Metabolic Activation: RAT, LIVER, S-9, AROCLOR 1254 (10%); Method: PREINCUBATION
Activity calls are given as the source filed them. The rule behind the calls is not given here.
Would you mind answering with one of these outcomes? t for active, f for inactive

>  <molecule>
C=CC(=O)OCCCCCCOC(=O)C=C

>  <group>
f

$$$$
>  <molecule>
CCCCCCCCCCCC(=O)[O][Sn]([CH2]CCC)([CH2]CCC)[O]C(=O)CCCCCCCCCCC

>  <group>
f

$$$$
>  <molecule>
ClCCCl

>  <group>
f

$$$$
>  <molecule>
CC(C)CCCCCOC(=O)C[S][Sn]([CH3])([S]CC(=O)OCCCCCC(C)C)[S]CC(=O)OCCCCCC(C)C

>  <group>
f

$$$$

Given O=C(Cl)c1ccccc1[N+](=O)[O-] , state the outcome it received in this test. t

Record request — test call for Cc1c(N)cccc1N f

// return assay outcome for CCCCCCC(=O)O f

How did this test come out for Nc1cc(Cl)c([N+](=O)[O-])cc1O ? t

Test call for this molecule, please: Cc1ccccc1C#N f

====

# System: CCRIS mutagenicity, Ames/micronucleus/aberration tests
# experiment.summary: CCRIS mutagenicity studies
# test.parameters: Test System: E. COLI; Strain/Indicator: WP2 UVRA; Metabolic Activation: RAT, LIVER, S-9, AROCLOR 1254; Method: STANDARD PLATE
Active and inactive are the calls of the source. The rule behind the calls is not given here.
The reply should name one outcome from active, inactive

Take a look at these entries with their results.
>  <compound>
Nc1ccc(Cl)c(N)c1

>  <group>
inactive

$$$$
>  <compound>
CC(=O)Nc1cccc2c1-c1ccccc1C2

>  <group>
inactive

$$$$
>  <compound>
CCC(=O)OCC(=O)[C@@]1(OC(=O)CC)[C@H](C)C[C@H]2[C@H]3[C@H]([C@@H](O)C[C@@]21C)[C@@]1(C)C=CC(=O)C=C1C[C@H]3Cl

>  <group>
inactive

$$$$
>  <compound>
CCOP(=S)(OCC)Oc1cc(C)nc(C(C)C)n1

>  <group>
inactive

$$$$
>  <compound>
CC(=O)OC/N=[N+](/C)[O-]

>  <group>
inactive

$$$$

I'd appreciate the recorded outcome for O=Nc1ccc(NO)cc1 from this test. inactive

====

# Test system: CCRIS mutagenicity, Ames/micronucleus/aberration tests
# experiment.summary: CCRIS mutagenicity studies
# test.parameters: Test System: AMES SALMONELLA TYPHIMURIUM; Strain/Indicator: TA97; Metabolic Activation: NONE; Method: STANDARD PLATE
# Description: The CCRIS database contains chemical records with carcinogenicity, mutagenicity, tumor promotion, and tumor inhibition test results. It was developed by the National Cancer Institute (NCI). Data are derived from studies cited in primary journals, current awareness tools, NCI reports, and other sources. Test results have been reviewed by experts in carcinogenesis and mutagenesis. CCRIS provides historical information from the years 1985 - 2011. It is no longer updated. […]
Active and inactive are the calls of the source. The rule behind the calls is not given here.
parameter.measured: mutagenic call

>  <molecule>
Cc1c(C)c2c(N)c3ccccc3nc2c2ccccc12

>  <parameter.measured>
mutagenic call

>  <reported>
active; positive

$$$$
>  <molecule>
NCCNC(=O)c1ccc(Cl)cn1

>  <parameter.measured>
mutagenic call

>  <reported>
inactive; negative

$$$$
>  <molecule>
O=C1CCC(N2C(=O)c3ccccc3C2=O)C(=O)N1 (configuration not stated)

>  <parameter.measured>
mutagenic call

>  <reported>
inactive; negative

$$$$
>  <molecule>
O=C1NC(=O)C(c2ccccc2)(c2ccccc2)N1

>  <parameter.measured>
mutagenic call

>  <reported>
inactive; negative

$$$$
>  <molecule>
CCCCCCCC/C=C\CCCCCCCCCCCC(=O)NCCCCCCCCCCCCCCCCCC

>  <parameter.measured>
mutagenic call

>  <reported>
inactive; negative

$$$$
>  <molecule>
CN1CC[C@@]2(C)c3cc(O)ccc3N(C)[C@@H]12

>  <parameter.measured>
mutagenic call

>  <reported>
inactive; negative

$$$$

Quick check: mutagenic call of O=C1CN(/N=C/c2ccc([N+](=O)[O-])o2)C(=O)N1 ? active; positive

Item CCC(CCOCn1cc[n+](C)c1/C=N/O)[N+](=O)[O-] (configuration not stated) has what recorded mutagenic call? inactive; negative

Name the reported mutagenic call value associated with the molecule O=C1NCCN1c1ncc([N+](=O)[O-])s1 active; positive

Any idea what its mutagenic call is? The molecule is O=C(O)c1cc(=O)c2c(OCC(O)COc3cccc4oc(C(=O)O)cc(=O)c34)cccc2o1 inactive; negative

# get_value(readout='mutagenic call', item= CN1CCC[C@H]1c1cccnc1 ) inactive; negative

Look at this molecule and give its reported mutagenic call. CN=C1C=CC(=C(c2ccc(NC)cc2)c2ccc(N(C)C)cc2)C=C1 inactive; negative
